Target: UniProt P08246
Sequence (P08246 30-247 limits assumed): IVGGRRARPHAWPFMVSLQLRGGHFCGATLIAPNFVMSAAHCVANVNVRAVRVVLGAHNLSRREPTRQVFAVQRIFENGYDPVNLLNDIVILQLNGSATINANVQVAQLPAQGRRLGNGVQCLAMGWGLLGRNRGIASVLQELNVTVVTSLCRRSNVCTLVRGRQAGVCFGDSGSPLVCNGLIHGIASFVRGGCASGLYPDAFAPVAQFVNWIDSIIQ
Test: In vivo inhibitory activity: model of acute hemorrhagic edema in hamsters
Parameters: It is a glycoprotein of 25 to 30 kDa formed from 218 amino acids; from tissue; host or cells: human sputum (purified preparation)
Settings: hamster, 10 μg intratracheally 3 hours before elastase (50 units); hemoglobin in broncho-alveolar washing 3 hours after elastase
Is Inhibition (%) of hemorrhaging at least 40%? Then TRUE. If not, FALSE.

- compound: "CC(C)C(NC(=O)[C@@H]1[C@@H]2CC[C@@H](C2)N1C(=O)[C@@H](NC(=O)c1ccc(S(=O)(=O)NC(=O)c2ccccc2C(=O)N2CCSC2)cc1)C(C)C)C(=O)C(F)(F)F (some centres unmarked) [Example 23]"
  classLabel: "TRUE"
- compound: "CC(C)C(NC(=O)[C@@H]1[C@@H]2CC[C@@H](C2)N1C(=O)[C@@H](NC(=O)c1ccc(C(=O)NS(=O)(=O)c2ccc(Cl)cc2)cc1)C(C)C)C(=O)C(F)(F)F (some centres unmarked) [Example 22]"
  classLabel: "TRUE"
- compound: "CC(=O)N[C@@H](CSC(C)(C)C)C(=O)NS(=O)(=O)c1ccc(C(=O)N[C@H](C(=O)N2C3CCC(CC3)[C@H]2C(=O)NC(C(=O)C(F)(F)F)C(C)C)C(C)C)cc1 (some centres unmarked) [Example 18]"
  classLabel: "FALSE"
- compound: "CC(C)C(NC(=O)[C@@H]1C2CCC(CC2)N1C(=O)[C@@H](NC(=O)c1ccc(C(=O)NS(=O)(=O)c2ccc(Cl)cc2)cc1)C(C)C)C(=O)C(F)(F)F (single isomer, unassigned) [Example 4]"
  classLabel: "TRUE"
